Exercise: state measured half-life for each of the compounds provided.
Experiment: Dog plasma stability
Assay type: in vitro ADME
Settings: dog plasma, 2 μg/mL, 37° C.; read-out: Dog plasma Half life (t1/2)
Give bare numbers, in h.

See these solved cases before continuing.
{"Sample Smiles": "CC(=O)[C@H]1CC[C@H]2[C@@H]3CC[C@H]4C[C@](C)(OC(=O)COC(=O)C(C)(C)N)CC[C@]4(C)[C@H]3CC[C@]12C", "Endpoint Result": 86.6}
{"Sample Smiles": "CC(=O)[C@H]1CC[C@H]2[C@@H]3CC[C@H]4C[C@](C)(OC(=O)CN)CC[C@]4(C)[C@H]3CC[C@]12C", "Endpoint Result": 26.8}
{"Sample Smiles": "CC(=O)[C@H]1CC[C@H]2[C@@H]3CC[C@H]4C[C@](C)(O)CC[C@]4(C)[C@H]3CC[C@]12C", "Endpoint Result": 62.4}
{"Sample Smiles": "CC(=O)[C@H]1CC[C@H]2[C@@H]3CC[C@H]4C[C@](C)(OC(=O)COC(=O)C(C)(C)OC(=O)CN(CCO)CCO)CC[C@]4(C)[C@H]3CC[C@]12C", "Endpoint Result": 0.333}

Proceed to the following item.
Asked: What value of half-life has been recorded for this entry: `CC(=O)[C@H]1CC[C@H]2[C@@H]3CC[C@H]4C[C@](C)(OC(=O)CNC(C)(C)C(=O)O)CC[C@]4(C)[C@H]3CC[C@]12C`
Given back: 9.72
